The measurements presented in this section are drawn from patent US20180344702A1.

Test system: Molm-13
Assay: Cytotoxicity, MTS cell viability
Type: cell-based
Details: Homo sapiens, AML, 72 hour MTS
recorded.metric: IC50 (nM)
Just the number in nM, nothing appended.

Cc1cnc(-c2ccc(-c3ccc(NC(=O)Nc4c(F)cc(F)cc4F)cc3F)c3c2C(=O)NC3)[nH]1 tested on Molm-13 gave IC50: 0.395

----------
Target: FLT3(N841I) (Homo sapiens, UniProt P36888, N841I)
Sequence (P36888 27-993 N841I): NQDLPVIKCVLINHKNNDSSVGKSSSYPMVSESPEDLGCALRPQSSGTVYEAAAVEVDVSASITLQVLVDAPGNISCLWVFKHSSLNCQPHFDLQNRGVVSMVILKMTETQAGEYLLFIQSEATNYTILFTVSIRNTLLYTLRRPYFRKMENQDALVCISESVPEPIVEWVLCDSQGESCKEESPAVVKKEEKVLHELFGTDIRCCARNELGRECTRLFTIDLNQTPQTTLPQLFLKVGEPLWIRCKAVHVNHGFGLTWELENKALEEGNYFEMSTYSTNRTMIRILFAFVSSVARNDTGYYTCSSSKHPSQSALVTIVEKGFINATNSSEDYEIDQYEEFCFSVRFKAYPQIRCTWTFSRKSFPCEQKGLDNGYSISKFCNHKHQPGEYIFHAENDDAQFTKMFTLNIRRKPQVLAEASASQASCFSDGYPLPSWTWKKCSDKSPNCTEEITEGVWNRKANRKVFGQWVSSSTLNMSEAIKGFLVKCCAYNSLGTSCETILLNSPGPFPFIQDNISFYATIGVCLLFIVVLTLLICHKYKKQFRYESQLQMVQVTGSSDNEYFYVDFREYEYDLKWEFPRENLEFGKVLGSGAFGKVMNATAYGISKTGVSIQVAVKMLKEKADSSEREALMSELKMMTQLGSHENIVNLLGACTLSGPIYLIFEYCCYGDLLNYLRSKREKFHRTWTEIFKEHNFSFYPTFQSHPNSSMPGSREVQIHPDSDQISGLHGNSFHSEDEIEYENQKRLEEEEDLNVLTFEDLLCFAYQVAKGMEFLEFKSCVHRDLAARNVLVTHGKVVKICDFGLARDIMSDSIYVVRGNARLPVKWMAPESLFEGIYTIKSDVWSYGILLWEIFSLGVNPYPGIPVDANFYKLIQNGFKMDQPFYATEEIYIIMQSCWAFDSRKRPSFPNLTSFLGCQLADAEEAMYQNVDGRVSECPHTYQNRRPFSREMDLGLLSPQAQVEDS
Test: Binding constant (Kd), competition binding with qPCR readout
recorded.metric: Kd (nM)
Just the number in nM, nothing appended.

Kd reported for this molecule Cc1cnc(-c2ccc(-c3ccc(NC(=O)Nc4c(F)cc(F)cc4F)cc3F)c3c2C(=O)NC3)[nH]1 : 0.76

----------
Biological target: FLT3(D835H) (Homo sapiens, UniProt P36888, D835H)
Sequence (P36888 27-993 D835H): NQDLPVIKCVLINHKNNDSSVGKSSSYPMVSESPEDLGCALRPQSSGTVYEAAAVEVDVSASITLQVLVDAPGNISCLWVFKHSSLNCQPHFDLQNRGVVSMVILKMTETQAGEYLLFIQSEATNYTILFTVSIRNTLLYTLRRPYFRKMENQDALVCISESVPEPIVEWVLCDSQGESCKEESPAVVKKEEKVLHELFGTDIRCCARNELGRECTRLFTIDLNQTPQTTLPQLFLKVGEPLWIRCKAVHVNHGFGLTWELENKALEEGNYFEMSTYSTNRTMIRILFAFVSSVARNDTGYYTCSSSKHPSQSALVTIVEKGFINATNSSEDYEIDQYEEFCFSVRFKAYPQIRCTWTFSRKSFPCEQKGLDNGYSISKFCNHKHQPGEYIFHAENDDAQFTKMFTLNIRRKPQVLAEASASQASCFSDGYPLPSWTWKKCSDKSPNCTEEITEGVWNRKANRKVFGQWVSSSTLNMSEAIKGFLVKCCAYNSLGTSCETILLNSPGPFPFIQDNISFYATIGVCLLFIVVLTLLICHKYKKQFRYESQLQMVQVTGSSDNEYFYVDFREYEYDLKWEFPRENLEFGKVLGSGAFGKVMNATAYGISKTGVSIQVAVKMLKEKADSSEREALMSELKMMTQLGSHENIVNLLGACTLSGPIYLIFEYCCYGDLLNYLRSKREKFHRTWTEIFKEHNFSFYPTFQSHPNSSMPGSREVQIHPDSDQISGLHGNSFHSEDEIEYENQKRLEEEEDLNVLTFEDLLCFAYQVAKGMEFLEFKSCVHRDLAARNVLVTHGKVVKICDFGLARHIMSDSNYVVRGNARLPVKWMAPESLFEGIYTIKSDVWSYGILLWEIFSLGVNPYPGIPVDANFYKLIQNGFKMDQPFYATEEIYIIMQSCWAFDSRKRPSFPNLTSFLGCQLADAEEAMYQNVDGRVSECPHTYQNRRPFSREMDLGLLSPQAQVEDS
Assay: Binding constant (Kd), kinase-tagged phage / affinity bead competition binding with qPCR readout
recorded.metric: pKd
Please report pKd as the negative decimal logarithm of the molar concentration, giving only the number.

Cc1cnc(-c2ccc(-c3ccc(NC(=O)Nc4c(F)cc(F)cc4F)cc3F)c3c2C(=O)NC3)[nH]1 tested on FLT3(D835H) (Homo sapiens, UniProt P36888, D835H) gave pKd: 8.66
